All figures here come from PubChem BioAssay AID179.

Could you please report measured log10 of IC50 for the items listed next?
Tested on: CEM cells HIV-1 protection, formazan growth assay
Test: NCI AIDS Antiviral Assay
Conditions: measured here: growth of uninfected CEM cells
Protocol: The ability of compounds to protect human CEM cells from HIV-1 infection is measured as a screen for new compounds capable of inhibiting the HIV virus. Five concentrations of drug were tested on uninfected and infected cells and cell growth was measured using a soluble formazan assay. […] Compounds that provided at least 50% protection were retested. Compounds that provided at least 50% protection on retest were listed as moderately active. […]
# values: log10(IC50), units µM

Sample answers from the record:
[[record]]
compound = "O=C(NC1=C(Cl)C(=O)c2ccccc2C1=O)C(=O)C(C(=O)c1ccc2ccccc2c1)C1OC(=O)c2ccccc21 (configuration not stated)"
reading = 1.06

[[record]]
compound = "O=C(Cc1ccccc1)NNc1nc(NNC(=O)c2ccncc2)nc(Nc2ccc([N+](=O)[O-])cc2)n1"
reading = 1.06

[[record]]
compound = "N#CC(C#N)=C/C=C/c1ccccc1[N+](=O)[O-]"
reading = 0.54

[[record]]
compound = "CCOP(=O)(OCC)C(=O)C1CC1"
reading = 2.92

[[record]]
compound = "O=C1C(=O)N(c2cccc(C(F)(F)F)c2)C(=S)N1c1ccccc1"
reading = 1.49


Items follow; give log10 of IC50 for each.
1. CN(NC(=O)/C(=C/C=C/c1ccccc1)NC(=O)c1ccccc1)C1=C(Cl)C(=O)[N+](c2ccccc2)=CC1
2. CNC(=O)NCCCCC(NC(=O)OCc1ccccc1)C(=O)OCc1ccccc1 (configuration not stated)
3. CO[C@H](C(=O)O[C@H]1C(=O)N2CCC3CCC1C32C)c1ccccc1 (some centres not stated)
4. COc1ccc(SS(=O)(=O)c2ccc(OC)cc2)cc1
5. CCc1cccc(CC)c1NC(=O)C(C#N)C1=C(Cl)C(=O)c2ccccc2C1=O (configuration not stated)
6. COc1ccc(Cc2nnc(C)c3c(C)[nH]nc23)cc1
7. CCCCSCc1nc2ccccc2c(C)[n+]1[O-]

1.55
1.78
2.70
0.72
1.06
1.53
2.64
